Where do the numbers come from? From paper PMC3526353.

Biological target: receptor for advanced glycation end products (RAGE) (Homo sapiens)
Sequence (Q15109 23-342 limits assumed): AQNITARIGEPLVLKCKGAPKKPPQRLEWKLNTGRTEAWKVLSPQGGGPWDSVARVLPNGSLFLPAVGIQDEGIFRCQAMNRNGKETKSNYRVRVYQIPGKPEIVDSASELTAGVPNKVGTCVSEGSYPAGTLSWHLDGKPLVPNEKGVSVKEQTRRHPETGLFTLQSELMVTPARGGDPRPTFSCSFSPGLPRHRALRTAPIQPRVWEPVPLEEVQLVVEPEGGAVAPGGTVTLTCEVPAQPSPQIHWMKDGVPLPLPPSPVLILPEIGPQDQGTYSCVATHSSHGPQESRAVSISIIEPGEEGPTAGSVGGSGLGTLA
measurementKind: Kd (nM)
API: value field is a number in nM; no unit string.

Tell me the measured Kd of CCCCCCCC/C=C\CCCCCCCC(=O)OC[C@@H](O)COP(=O)(O)O [LPA] , please.
84.9
